Assayed System: UniProt P10275
Sequence (P10275 other isoform, or with tags, fused parts or gaps): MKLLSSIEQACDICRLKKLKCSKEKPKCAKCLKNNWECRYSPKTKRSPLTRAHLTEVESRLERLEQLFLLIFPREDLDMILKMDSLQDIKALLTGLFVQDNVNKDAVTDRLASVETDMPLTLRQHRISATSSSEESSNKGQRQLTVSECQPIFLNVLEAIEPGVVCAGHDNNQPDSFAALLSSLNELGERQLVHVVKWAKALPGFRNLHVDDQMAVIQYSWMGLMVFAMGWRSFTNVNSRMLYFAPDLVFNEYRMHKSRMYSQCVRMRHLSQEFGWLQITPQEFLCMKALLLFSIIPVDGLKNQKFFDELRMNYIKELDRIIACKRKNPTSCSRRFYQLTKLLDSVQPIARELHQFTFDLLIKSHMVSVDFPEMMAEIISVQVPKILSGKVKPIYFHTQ
Measurement Description: Androgen receptor (AR) reporter assay, antagonist screen activated by R1881
Test Settings: AR-UAS-bla GripTite 293 cells, antagonist mode, R1881 at EC80
pIC50: −log10 of the molar value.
pIC50 values for the compounds below.

chemical_string=CCCc1nc(C)c2c(=O)[nH]c(-c3cc(N4C(=S)N(c5ccc(C#N)c(C(F)(F)F)c5)C(=O)C4(C)C)ccc3OCC)nn12 result_type=pIC50 reported_result="≥ 6.30"
chemical_string=CCCc1nc(C)c2c(=O)[nH]c(-c3cc(N4C(=S)N(c5ccc(C#N)c(C(F)(F)F)c5F)C(=O)C4(C)C)ccc3OCC)nn12 result_type=pIC50 reported_result="≥ 6.30"

# evaluate next
Could you share which pIC50 value was measured for CCCc1nn(C)c2c(=O)[nH]c(-c3cc(N4C(=S)N(c5ccc(C#N)c(C(F)(F)F)c5)C(=O)C45CCC5)ccc3OCC)nc12 ?
≥ 6.30
